Where do these numbers come from? They come from a melting point compilation (Tetko et al.; mined from patent text by program, amines drawn as free bases though some values may be those of a salt).

Consider the following compounds; for each one, report its melting point.

These recorded examples may help you get a feel for the data.
- compound: "COC(=O)C(C)CNc1nc2ccccc2o1 (stereo not given)"
  melting point: "89 to 90 °C"
- compound: "CONC(=O)Nc1ccc(-c2sc3c(c2CN(C)C(C)c2ccccc2)c(=O)n(-c2ccccn2)c(=O)n3Cc2c(F)cccc2F)cc1 (stereo not given)"
  melting point: "168 to 170 °C"

Below is a list of compounds. For each, state its recorded melting point.
1. CCOc1cc(C(CS(C)(=O)=O)N2C(=O)c3cccc(NS(C)(=O)=O)c3C2=O)ccc1OC (stereo not given)
2. Oc1onc(CCCc2cccc(OCc3ccccc3)c2)c1C(c1ccccc1)c1ccccc1
3. CCCCCCC1CC(=O)C=C(N)C1 (stereo not given)
4. Cc1[nH]c(=O)n(C)c1-c1cc(C(C)(C)C)c(O)c(C(C)(C)C)c1
5. Nc1ccc(C(=O)N2Cc3cccn3-c3ccccc32)cc1

Found:
["191 to 193 °C", "89 to 90.5 °C", "113 °C", "285 to 286 °C", "225 to 228 °C"]

For each of the items listed, what is its melting point?
1. O=c1[nH]c2ccccc2n1CCCN1CCN(C(c2ccc(F)cc2)c2ccc(F)cc2)CC1
2. O=C(O)c1sccc1OC(F)F
3. CC(=O)Nc1cc(C(C)(C)C)c(SC2=C(O)CC(CCc3ccc(O)cc3)(C3CCCCC3)OC2=O)cc1C (stereo not given)
4. O=C1OC(CN2CCC(O)(c3ccc(F)cc3)CC2)CN1c1ccccc1 (stereo not given)
5. COC(=O)Cn1c(=O)c(=O)[nH]c2cc(N)c(Cl)cc21
6. OCCN1CCN(c2cc(Cl)nnc2Cl)CC1

Found:
1. 197 °C
2. 98 to 100 °C
3. > 154 °C
4. 128 to 129 °C
5. > 260 °C
6. 139 to 141 °C

Value sought for every listed compound: melting point.
1. O=C(Cl)N1CCC1Oc1ccc(C(F)(F)F)cc1Cl (stereo not given)
2. CN1C(=O)CCC2(C)c3ccc(-c4cccc(F)c4)cc3CCC12 (single isomer, unassigned; (+))
3. COc1ccccc1N1CCN(C(=O)[C@@H](Cc2ccncc2)NC(=O)OC(C)(C)C)CC1
4. CSc1cc(Oc2cccc(C(F)(F)F)c2)nc(C(=O)O)c1
5. CCc1cccc(CC)c1NC(=O)C(C)Br (stereo not given)
6. Cc1ccc(S(=O)(=O)Nc2ccc(Oc3ccc4nc(COc5ccc(CC6SC(=O)NC6=O)cc5)n(C)c4c3)cc2)cc1 (stereo not given)
7. CC(C)(C)C(COC(N)=O)(NC(=O)C(=O)c1c[nH]c2cc(Br)ccc12)c1c[nH]c2ccccc12 (stereo not given)
8. Cn1cc(-c2ncc(-c3ccc4cc(OC(Cc5ccccc5)C(=O)O)ccc4c3)o2)c2ccccc21 (stereo not given)

Found:
1. 86 to 88 °C
2. 116 to 120 °C
3. 105 °C
4. 54 to 57 °C
5. 197 to 199 °C
6. 132 to 136 °C
7. 145 °C
8. 149 to 151 °C
